Recorded IC50 for the following compounds
test system: 4 PI3K isoforms (Human recombinant GST-PI3K); experiment: PI3K scintillation proximity assay, best IC50 obtained with the four isoforms (alpha, beta, delta, gamma); assay type: biochemical; details: best IC50 obtained with the four isoforms of PI3K; read-out: Best potency measured on the 4 PI3K isoforms
A number alone suffices; assume nM.

O=C(c1nn([C@H]2CCCN(CCC3CCOCC3)C2)c2c1CS(=O)(=O)c1ncccc1-2)N1CCOCC1 (single isomer, unassigned) [Example 422] : 16
CS(=O)(=O)c1ccc(-n2nc(C(=O)N3CCOCC3)c3c2-c2ccccc2S(=O)(=O)C3)cc1 [Example 130] : 4520
CNCc1ccc(-n2nc(C(=O)N3CCOCC3)c3c2-c2ccccc2S(=O)(=O)C3)cc1 [Example 449] : 226

// next item, IC50 requested
INPUT: Fill blank: measured IC50 of the compound CC(=O)Nc1ccc2c(c1)-c1c(c(C(=O)N3CCOCC3)nn1-c1ccccc1)CS2(=O)=O [Example 100] is ____.
OUTPUT: 876

###

test system: 4 PI3K isoforms (Human recombinant GST-PI3K); assay: PI3K scintillation proximity assay, best IC50 obtained with the four isoforms (alpha, beta, delta, gamma); assay type: biochemical; conditions: best IC50 obtained with the four isoforms of PI3K; read-out: Best potency measured on the 4 PI3K isoforms
Counter-ions that a name gives are not always drawn.
Recorded pIC50 for the following compounds
By convention, pIC50 is the negative base-10 log of a molar concentration.

Please review the entries below; each comes with its answer.
O=C(c1nn([C@@H]2CCCN(CCC3CCOCC3)C2)c2c1CS(=O)(=O)c1c(F)cccc1-2)N1CCOCC1 (single isomer, unassigned) [Example 343, hydrochloride salt] : 5.72
O=C(c1nn(Cc2cc(Cl)cs2)c2c1CS(=O)(=O)c1ccccc1-2)N1CCOCC1 : 6.20
COc1cccc2c1S(=O)(=O)Cc1c(C(=O)N3CCOCC3)nn([C@H]3CCCN(CCN4CC(F)C4)C3)c1-2 (single isomer, unassigned) : 7.21

INPUT: Fill blank: measured pIC50 of the compound O=C(c1nn(C2CCCN(CCN3CCC(F)CC3)C2)c2c1CS(=O)(=O)c1ccccc1-2)N1CCOCC1 (centres unmarked) is ____.
OUTPUT: 7.47

INPUT: Would you mind doing O=C(c1nn(-c2ccc(CNC3CCOCC3)cc2)c2c1CS(=O)(=O)c1ccccc1-2)N1CCOCC1 as well?
OUTPUT: 6.97

###

tested on: 4 PI3K isoforms (Human recombinant GST-PI3K); experiment: PI3K scintillation proximity assay, best IC50 obtained with the four isoforms (alpha, beta, delta, gamma); format: biochemical; conditions: best IC50 obtained with the four isoforms of PI3K; read-out: Best potency measured on the 4 PI3K isoforms
Recorded pIC50 for the following molecules
By convention, pIC50 is the negative base-10 log of a molar concentration.

Please review the entries below; each comes with its answer.
COCCNCc1ccc(-n2nc(C(=O)N3CCOCC3)c3c2-c2ccccc2S(=O)(=O)C3)cc1 [Example 431] : 6.79
O=C(c1nn([C@@H]2CCCN(CCN3CCOCC3)C2)c2c1CS(=O)(=O)c1c(Cl)cccc1-2)N1CCOCC1 [Example 387] : 5.28
O=C(c1nn(C2CCCNC2)c2c1CS(=O)(=O)c1cc(OC(F)(F)F)ccc1-2)N1CCOCC1 (stereo not drawn) [Example 481] : 4.98
COc1ccc2c(c1)S(=O)(=O)Cc1c(C(=O)N3CCOCC3)nn([C@H]3CCCN(CCN4CCOCC4)C3)c1-2 (single isomer, unassigned) [Example 383] : 7.62
O=C(c1nn(-c2cccc(CN3CCCC(F)(F)C3)c2)c2c1CS(=O)(=O)c1ccccc1-2)N1CCOCC1 [Example 244] : 5.81
O=C(c1n[nH]c2c1CS(=O)(=O)c1ccccc1-2)N1CCOCC1 [Example 3] : 5.54

INPUT: Fill blank: measured pIC50 of the molecule O=C(c1nn(C2CCN(CCN3CC[C@H](F)C3)C2)c2c1CS(=O)(=O)c1ccccc1-2)N1CCOCC1 (stereo partly drawn) [Example 310] is ____.
OUTPUT: 6.72

INPUT: Would you mind doing O=C(c1nn(C2CCCN(CCC3CCOCC3)C2)c2c1CS(=O)(=O)c1c(F)cccc1-2)N1CCOCC1 (stereo not drawn) [Example 280] as well?
OUTPUT: 7.66

INPUT: Would you mind doing O=C(c1nn(-c2ccccc2)c2c1CS(=O)(=O)c1cc(Br)ccc1-2)N1CCOCC1 [Example 122] as well?
OUTPUT: 6.04

###

test system: 4 PI3K isoforms (Human recombinant GST-PI3K); assay: PI3K scintillation proximity assay, best IC50 obtained with the four isoforms (alpha, beta, delta, gamma); assay type: biochemical; settings: best IC50 obtained with the four isoforms of PI3K; read-out: Best potency measured on the 4 PI3K isoforms
assayReadout: IC50 (µM)
A number alone suffices; assume µM.

Please review the entries below; each comes with its answer.
CC1CC(C)CC(n2nc(C(=O)N3CCOCC3)c3c2-c2ccccc2S(=O)(=O)C3)C1 (stereo not shown) : 7.96
O=C(c1nn(CCCO)c2c1CS(=O)(=O)c1ccccc1-2)N1CCOCC1 : 2.25
COC1CCN(Cc2cccc(-n3nc(C(=O)N4CCOCC4)c4c3-c3ccccc3S(=O)(=O)C4)c2)CC1 : 0.24

// next item, IC50 requested
INPUT: What is its IC50 for 4 PI3K isoforms (Human recombinant GST-PI3K)? Entry: O=C(c1nn(C2CCN(CC3CCOC3)C2)c2c1CS(=O)(=O)c1ccccc1-2)N1CCOCC1 (stereo not shown)
OUTPUT: 0.353

###

Recorded IC50 for the following molecules
test system: 4 PI3K isoforms (Human recombinant GST-PI3K); test: PI3K scintillation proximity assay, best IC50 obtained with the four isoforms (alpha, beta, delta, gamma); type: biochemical; details: best IC50 obtained with the four isoforms of PI3K; read-out: Best potency measured on the 4 PI3K isoforms
A number alone suffices; assume nM.

COc1ccc2c(c1)S(=O)(=O)Cc1c(C(=O)N3CCOCC3)nn([C@@H]3CCCN(CCC4CCOCC4)C3)c1-2 (single isomer, unassigned) : 10300
O=C(c1nn([C@@H]2CCCN(CC3CCOCC3)C2)c2c1CS(=O)(=O)c1ncccc1-2)N1CCOCC1 (single isomer, unassigned) : 830

// next item, IC50 requested
INPUT: Fill blank: measured IC50 of the molecule O=C(c1nn([C@@H]2CCCNC2)c2c1CS(=O)(=O)c1ccccc1-2)N1CCOCC1 (single isomer, unassigned) is ____.
OUTPUT: 3000

###

system: 4 PI3K isoforms (Human recombinant GST-PI3K); test: PI3K scintillation proximity assay, best IC50 obtained with the four isoforms (alpha, beta, delta, gamma); assay type: biochemical; conditions: best IC50 obtained with the four isoforms of PI3K; read-out: Best potency measured on the 4 PI3K isoforms
assayReadout: IC50 (nM)
A number alone suffices; assume nM.

COc1cccc2c1S(=O)(=O)Cc1c(C(=O)N3CCOCC3)nn(C)c1-2 : 1730
CS(=O)(=O)N1CCCC(n2nc(C(=O)N3CCOCC3)c3c2-c2ccccc2S(=O)(=O)C3)C1 (stereo not shown) : 994
O=C(c1nn(C2CCN(CCN3CCC(F)CC3)C2)c2c1CS(=O)(=O)c1ccccc1-2)N1CCOCC1 (stereo not shown) : 149
CC(=O)N1CCC(Cn2nc(C(=O)N3CCOCC3)c3c2-c2ccccc2S(=O)(=O)C3)CC1 : 2820
CCCCNc1ccc2c(c1)S(=O)(=O)Cc1c(C(=O)N3CCOCC3)nn(-c3ccccc3)c1-2 : 9790
COCCN(CCOC)CCN1CCC[C@H](n2nc(C(=O)N3CCOCC3)c3c2-c2ccccc2S(=O)(=O)C3)C1 (stereo in doubt) : 113

INPUT: Fill blank: measured IC50 of the molecule O=C(c1nn(-c2ccccc2)c2c1CS(=O)(=O)c1ccc([N+](=O)[O-])cc1-2)N1CCOCC1 is ____.
OUTPUT: 1830

###

tested on: 4 PI3K isoforms (Human recombinant GST-PI3K); assay: PI3K scintillation proximity assay, best IC50 obtained with the four isoforms (alpha, beta, delta, gamma); assay type: biochemical; conditions: best IC50 obtained with the four isoforms of PI3K; read-out: Best potency measured on the 4 PI3K isoforms
assayReadout: IC50 (nM)
A number alone suffices; assume nM.

Please review the entries below; each comes with its answer.
Cn1nc(C(=O)N2CCOCC2)c2c1-c1ccccc1S(=O)(=O)C2 : 1750
CC1CCC(n2nc(C(=O)N3CCOCC3)c3c2-c2ccccc2S(=O)(=O)C3)CC1 (stereo not drawn) : 426
COc1ccc2c(c1)-c1c(c(C(=O)N3CCOCC3)nn1-c1ccccc1)CS2(=O)=O : 3350
O=C(c1nn([C@H]2CCCN(CCN3CCC(F)CC3)C2)c2c1CS(=O)(=O)c1ccccc1-2)N1CCOCC1 (single isomer, unassigned) : 25

INPUT: What is its IC50 for 4 PI3K isoforms (Human recombinant GST-PI3K)? Entry: CS(=O)(=O)C1CCN(Cc2cccc(-n3nc(C(=O)N4CCOCC4)c4c3-c3ccccc3S(=O)(=O)C4)c2)C1 (stereo not drawn)
OUTPUT: 464
